Kindly supply the reported FACS binding data values for the records listed here.
TARGET_OR_SYSTEM: Mutant CD33-GFP M4 (R122D) on 293FT cells (UniProt P20138)
Sequence (P20138 18-364 R122D): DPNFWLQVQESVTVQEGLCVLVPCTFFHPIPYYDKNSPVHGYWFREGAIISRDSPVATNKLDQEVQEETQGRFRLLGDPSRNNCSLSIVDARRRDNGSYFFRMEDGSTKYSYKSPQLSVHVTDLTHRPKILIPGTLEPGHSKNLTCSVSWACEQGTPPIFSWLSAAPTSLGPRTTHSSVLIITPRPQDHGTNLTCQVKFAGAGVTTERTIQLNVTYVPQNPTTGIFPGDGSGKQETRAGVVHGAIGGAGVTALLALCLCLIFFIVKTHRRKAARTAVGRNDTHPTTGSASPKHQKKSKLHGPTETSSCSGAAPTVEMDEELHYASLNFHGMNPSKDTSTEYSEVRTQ
ASSAY_SUMMARY: FACS, mutant CD33-GFP on 293FT cells
Numbers only.

Solved entries:
Entry sdCD33_9 (VHH, sdAb from a naive llama phage library; also called 426; sdAb426) VHH: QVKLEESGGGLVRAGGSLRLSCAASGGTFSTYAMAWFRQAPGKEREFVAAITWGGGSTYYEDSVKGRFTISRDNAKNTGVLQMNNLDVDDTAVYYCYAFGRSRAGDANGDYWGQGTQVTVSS : reported FACS binding data = ?
95.9

Entry sdCD33_7 (VHH, sdAb from a naive llama phage library; also called 420; sdAb420) VHH: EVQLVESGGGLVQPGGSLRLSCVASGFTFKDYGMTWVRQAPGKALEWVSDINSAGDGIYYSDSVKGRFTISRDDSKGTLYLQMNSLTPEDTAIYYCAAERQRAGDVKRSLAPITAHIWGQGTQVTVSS : reported FACS binding data = ?
97.8

Entry sdCD33_3 (VHH) VHH: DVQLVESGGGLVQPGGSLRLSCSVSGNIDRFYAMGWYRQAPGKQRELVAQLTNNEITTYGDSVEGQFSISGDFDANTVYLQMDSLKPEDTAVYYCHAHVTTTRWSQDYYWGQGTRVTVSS : reported FACS binding data = ?
98.5

Turning now to a further record.
Entry sdCD33_5 (VHH, sdAb from a naive llama phage library; also called 413; sdAb413) VHH: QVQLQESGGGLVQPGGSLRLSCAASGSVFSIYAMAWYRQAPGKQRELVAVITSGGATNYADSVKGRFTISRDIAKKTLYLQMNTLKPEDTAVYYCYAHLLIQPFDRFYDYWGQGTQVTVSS : reported FACS binding data = ?
76
